- TARGET_UNDER_TEST: H1N1 A/New Caledonia/20/1999 hemagglutinin ectodomain, biotinylated HA0 (influenza A virus A/New …, biotin on the BirA site)
- ASSAY_TEXT: SPR
No end group written: not given here.
ENDPOINT_NAME: Kd
The reply must contain the numeric value and, after it, the unit.

Solved entries:
{"BINDER": "PGLYEDPLGVAGGMG (also: cyclic peptide, ring closure not given here) [cyclic peptide CP6]", "Kd": "800 nM"}
{"BINDER": "LYEDPLGVAGGMG (non-template-based cyclic peptide (direct head-to-tail cyclization)) [cyclic peptide CP14]", "Kd": "640 nM"}

Lookup: Give the reported Kd for this binder. CYRDPLGVAGEMC (also: cyclic peptide, ring closure not given here) [cyclic peptide CP13]
Found: 32000 nM
